Source: patent EP4793271A1

Test Target: hSARM1 (Homo sapiens, UniProt Q6SZW1)
Sequence (Q6SZW1 28-724): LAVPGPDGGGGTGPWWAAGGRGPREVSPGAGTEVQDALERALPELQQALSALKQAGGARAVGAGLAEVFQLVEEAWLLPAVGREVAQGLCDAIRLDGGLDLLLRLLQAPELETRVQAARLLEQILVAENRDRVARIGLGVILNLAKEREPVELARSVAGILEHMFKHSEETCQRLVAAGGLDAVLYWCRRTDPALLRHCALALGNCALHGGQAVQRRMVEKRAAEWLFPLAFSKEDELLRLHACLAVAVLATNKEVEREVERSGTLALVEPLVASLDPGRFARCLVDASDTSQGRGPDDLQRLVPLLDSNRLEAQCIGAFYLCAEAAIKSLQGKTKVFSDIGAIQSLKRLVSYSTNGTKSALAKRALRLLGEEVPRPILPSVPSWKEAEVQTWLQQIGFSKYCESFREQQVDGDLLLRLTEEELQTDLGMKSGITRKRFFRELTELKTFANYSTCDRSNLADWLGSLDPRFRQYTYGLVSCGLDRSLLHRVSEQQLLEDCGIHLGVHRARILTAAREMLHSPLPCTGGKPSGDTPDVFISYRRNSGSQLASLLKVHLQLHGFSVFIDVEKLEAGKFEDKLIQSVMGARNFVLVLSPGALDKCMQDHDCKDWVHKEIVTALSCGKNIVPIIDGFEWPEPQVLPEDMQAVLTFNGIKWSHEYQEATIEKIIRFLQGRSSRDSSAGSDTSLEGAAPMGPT
Assay Overview: Human SARM1 activity measurement in HEK293 cells transiently transfected with ΔN-hSARM1 (PC6 fluorescent probe)
Assay type: cell-based
Set-up: expressed in transfected cells; host or cells: HEK293, pcDNA3 expression vector
Particulars: inhibition rate; compound 30 µM; PC6 50 µM; HEK293 cells expressing ΔN-hSARM1; approximately 48 hours from transfection; read-out: Evaluation on hSARM1 inhibitory
Text: […]
Consider the following molecules; for each one, report its inhibition at 30 µM.

// query For the molecule N#Cc1ccc(CC(=O)Nc2ccc(CNC(=O)c3cccnc3)cn2)cc1 [Compound 154] , what inhibition at 30 µM is on record?
// result > 75%

// query Dear colleague, I am looking for the recorded inhibition at 30 µM of the following molecule: O=C(C#Cc1ccccc1)Nc1ccc(CNC(=O)c2cccnc2)cn1 [Compound 184]
// result > 50%

// query For C#CCOc1cncc(C(=O)Nc2ccc(CNC(=O)c3cccnc3)cc2)c1 [compound 67] , what is its reported inhibition at 30 µM?
// result > 75%

// query Dear colleague, I am looking for the recorded inhibition at 30 µM of the following molecule: NCCOCCCCCCCCNC(=O)c1cccnc1 [compound 96]
// result > 75%

// query inhibition at 30 µM value for entry CC(C)C(=O)N(C(=O)C(C)C)c1ccc(CNC(=O)c2cccnc2)cn1 [Compound 172]
// result > 10%

// query Requested field: inhibition at 30 µM. Item: Cc1ccc(C(=O)Nc2ccc(CNC(=O)c3cccnc3)cn2)cc1 [Compound 119]
// result > 75%

// query Quick one: inhibition at 30 µM of O=C(NCc1ccc(NC(=O)c2ccccc2C(F)(F)F)nc1)c1cccnc1 [compound 81] ?
// result > 50%

// query Which inhibition at 30 µM is reported for this molecule? CCC(CC)C(=O)Nc1ccc(CNC(=O)c2cccnc2)cn1 [Compound 163]
// result > 25%

// query # lookup: inhibition at 30 µM of O=C(NCc1ccc(CNC(=O)c2ccccc2)nc1)c1cccnc1 [Compound 153]
// result > 75%

// query Which inhibition at 30 µM value is on record for O=C(CCc1ccccc1)NCc1ccc(CNC(=O)c2cccnc2)cc1 [compound 65] ?
// result > 75%

// query Given the entry O=C(NCCCOCCOCCCNC(=O)c1cccnc1)c1ccccc1 [Compound 186] , report its measured inhibition at 30 µM.
// result > 25%

// query Would you kindly share the measured inhibition at 30 µM for Cc1ccc(C(=O)Nc2ccc(CNC(=O)/C=C/c3cccnc3)cn2)cc1 [compound 78] ?
// result > 75%

// query // lookup inhibition at 30 µM for O=C(/C=C/c1cccnc1)NCCCCCCNC(=O)/C=C/c1cccnc1 [compound 38]
// result > 75%

// query Would you mind telling me what inhibition at 30 µM value was observed for O=C(CNC(=O)c1cccnc1)NCCCCCCNC(=O)CNC(=O)c1cccnc1 [compound 41] ?
// result > 75%

// query Record request: inhibition at 30 µM value, item O=C(CCc1ccc(C(F)(F)F)cc1)Nc1ccc(CNC(=O)c2cccnc2)cn1 [Compound 169]
// result > 75%

// query Requested read-out: inhibition at 30 µM. Entry: C/C(=C\C(=O)NCCOCCNC(=O)/C=C(\C)c1cccnc1)c1cccnc1 [compound 43]
// result > 75%

// query Would you kindly share the measured inhibition at 30 µM for O=C(Cc1ccc(OCc2ccccc2)cc1)Nc1ccc(CNC(=O)c2cccnc2)cn1 [Compound 177] ?
// result > 75%

// query Using the record for O=C(/C=C/c1cccnc1)NCCOCCOc1ccc(CNC(=O)c2ccccc2)cc1 [compound 14] , report its inhibition at 30 µM.
// result > 75%
